Provide the reported protein stability index of each item.
B1: PTPRD (parent)
chain: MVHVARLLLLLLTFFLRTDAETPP

- Variants of: B1
- Method: protein stability index of a GFP-peptide fusion (GPS, HEK-293T) (PSI 1-6); higher = more stable;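 also: lentivirally expressed fusions sorted by FACS into six bins by GFP to DsRed ratio, PSI derived from sequencing read proportions per bin multiplied by bin number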
- Protocol Conditions: c terminus: a fixed tail appended
Reply with just the number.

Quick one: give measured protein stability index for F14E
1.57

Quick one: give measured protein stability index for P24V
2.77

Quick one: give measured protein stability index for T18N
2.38

Quick one: give measured protein stability index for P24I
2.26

Quick one: give measured protein stability index for R6D
3.08

Quick one: give measured protein stability index for A20Q
2.29

Quick one: give measured protein stability index for P23M
2.86

Quick one: give measured protein stability index for F15V
2.2

Quick one: give measured protein stability index for L7S
2.15

Quick one: give measured protein stability index for V4T
2.52

Quick one: give measured protein stability index for H3C
4.98

Quick one: give measured protein stability index for P23S
2.84

Quick one: give measured protein stability index for T13G
2.01

Quick one: give measured protein stability index for D19S
1.84

Quick one: give measured protein stability index for P24Y
2.67

Quick one: give measured protein stability index for L12D
1.57
